These entries and their values trace back to PubChem BioAssay (NCI).

System: KM12 colon
Method: NCI-60 one-dose screen, 48 h (100 = growth as untreated, 0 = no growth, -100 = all killed)
Test conditions: 10 µM unless noted
Description: Growth inhibition of the KM12 human tumor cell line is measured as a screen for anti-cancer activity. Cells are grown in 96 well plates and exposed to the test compound for 48 hours. Compounds are tested at a single concentration, which is 10^-5 M for most compounds. The reported endpoint is percent growth (GI% or GIPRCNT), where numbers from 0 - 100% represent growth inhibition, and numbers from -100% - 0 represent cell death. For example, a value of 40 represents 60% growth inhibition. […]
This is part of a sample that, as a whole, favours compounds with a hit. Of some 83,000 tested, about 20% had one in any assay. Active and inactive are the calls of the source. How the source made its calls: active means growth percent below 10; inactive means the rest.
Recorded metric: growth

1) COc1ccc(C2CC(n3ccnc3)c3cc(OC)c(OC)c(OC)c32)cc1O (stereo unspecified): 50.6% (inactive)

Q. Look up and report growth, with KM12 colon as system, for CC(=O)Nc1sc2c(c1-c1nc3ccccc3s1)CNC2
A. 22.8% (inactive)

Q. Look up and report measured growth (KM12 colon) for the following molecule: Cc1c2ccccc2nc2cc3c(cc12)[C@H]1CC[C@]2(C)C(=O)CC[C@H]2[C@@H]1CC3
A. 95.4% (inactive)

Q. System KM12 colon. Read-out growth. Item COc1cc(C=C2C(=O)NC(=S)NC2=O)cc(CN2CCCC2)c1O . Report value.
A. 110% (inactive)

Q. For KM12 colon, give growth of the listed molecule: CCOC(=O)CNC1=C(Cl)C(=O)N(Cc2ccc(Cl)cc2)C1=O
A. 110% (inactive)

Q. Please respond with reported growth (system KM12 colon) for CN(C)/C(N)=N/N=C(\c1ccccc1)c1ccccn1 .
A. 99.1% (inactive)

Q. Give growth; test system KM12 colon; molecule c1csc(-c2cn3nc(-c4c[nH]c5ccccc45)sc3n2)c1
A. 23.8% (inactive)

Q. Write growth of COc1nc(/C=C\Nc2ccc3c(c2)OCCOCCOCCOCCO3)nc(OC)n1 ; system used: KM12 colon
A. 101% (inactive)

Q. Lab note: record growth of O=C(C1=Cc2cc3ccccc3n2Cc2cnnn21)c1ccc(F)cc1 tested on KM12 colon.
A. 90.8% (inactive)

Q. Supply growth measured with KM12 colon for O=C(CCCCCCCC(=O)N1CCCCC1)N1CCCCC1 .
A. 100% (inactive)

Q. Give KM12 colon growth for the following molecule: CN(C)CCCNC(=O)c1cncnc1Nc1ccc2c(ccn2Cc2cccc(F)c2)c1
A. 98% (inactive)
